ASSAY PROCEDURE: yeast display, Sf9 membrane polyspecificity reagent, FACS + sequencing; frameworks hold sequencing errors
MEASURED ATTRIBUTE: polyreactivity (PSR sort gate)

Record excerpt, results attached:
[
  {
    "SEQUENCE RECORD": "QVKHVESGGGLVQAGASLRLSCAASGSIFAYNAMGCYIQAPGKERELVATISRGGNTNYADSVKGRFTISRDNAKNSVYLQMNSLKPEDTAVYYCNVLGRDIDHEYGYWGQGTQVTVSS",
    "polyreactivity (PSR sort gate)": "high polyreactivity"
  },
  {
    "SEQUENCE RECORD": "QVQLVESGGGLVQAGGSLRLSCAASGRTLLLNTMGWYRQAPGKERELVAAISWRDGSTYYADSVKGRFTFSRDKAKNTVYLLMNSLKPEDTAVYYCNARLSGRSQYDVRFDYWGQGTQVTVSS",
    "polyreactivity (PSR sort gate)": "low polyreactivity"
  },
  {
    "SEQUENCE RECORD": "QVQLVESGGGLVQAGGSLRLSCAASGFNFPRYVMGWYRQAPGKERELVAAINSDISTNYADSVKGRFTISRDNANNSVYLQMTSLKPEDTAVFYCADERWDDPWEFDSWGQCTQVTVSS",
    "polyreactivity (PSR sort gate)": "low polyreactivity"
  },
  {
    "SEQUENCE RECORD": "QVQLVESGGGLVQAGGSLRLSCAASGRTFSRYAMGWYRQAPGKERELVATISSSGGTTYYADSVKGRFTISRDNAKNTVYLQLNSLKPEDTAVSYCNSEYKIRTHASGFDYWGQGTQVTVSS",
    "polyreactivity (PSR sort gate)": "low polyreactivity"
  }
]

Turning now to a further sequence:
// fetch polyreactivity (PSR sort gate) given entry QVQLVESGGGLVQAGGSLRLSCAASGRTLWYYTMGWYRQAPGKERELVAVISTSGGRTYYADSVKGRFTISRDNAKNTVYLQMNSLKPEDTAVYYCAADGFQYTLGNYYWGQGTQVTVSS
high polyreactivity

----------
ASSAY PROCEDURE: yeast display, Sf9 membrane polyspecificity reagent, FACS + sequencing; frameworks hold sequencing errors
MEASURED ATTRIBUTE: polyreactivity (PSR sort gate)

[
  {
    "SEQUENCE RECORD": "HVQLVESGGGLVQAGGILRLSCAASGRIFPGYTMGWYRQGPGKERELVARISFSDGSTYYADSVNGRFTISRDNAKNTVYFQMNSRKPEDTAVYYCNAATYRNRHSNNGYWGQGTQVTVSS",
    "MEASURED ATTRIBUTE": "polyreactivity (PSR sort gate)",
    "RESULT": "low polyreactivity"
  },
  {
    "SEQUENCE RECORD": "QVQLVESGGGLVQAGGSLRLSCAASGRTFYFYVMGWYRQAPGKERELVARISWSGGSTYYADSVKGRFTISRDNAKNTVYLQMNSLKPEDTAVYYCARQYKYPSSGEYDSWGQGTQVSVSS",
    "MEASURED ATTRIBUTE": "polyreactivity (PSR sort gate)",
    "RESULT": "low polyreactivity"
  }
]

----------
ASSAY PROCEDURE: yeast display, Sf9 membrane polyspecificity reagent, FACS + sequencing; frameworks hold sequencing errors
MEASURED ATTRIBUTE: polyreactivity (PSR sort gate)

Use these answered entries as a reference point.
[
  {
    "SEQUENCE RECORD": "QVQLVETGGGLVQAGGSLRLSCAASGSTFVYYAMGWYRQAPGKERELVAAISSGGNTKYADSVKGRFTISRDNAKNTVYLQMNSLKPEDTEVYYCARESQSYYDHDYWGQVTQVTVSS",
    "polyreactivity (PSR sort gate)": "low polyreactivity"
  },
  {
    "SEQUENCE RECORD": "QVQLVESGGGLVQAGGSLRLSCAASGGTFSGYVMGWYRQAPGKERELVAAISRRGTTTYYADSVKGRFTISRDNAKNTVYLQMISLKPEDTAVYYCAAVTRWKRTLSSFYYWGQGTQVTVSS",
    "polyreactivity (PSR sort gate)": "high polyreactivity"
  },
  {
    "SEQUENCE RECORD": "QVQLVESGGGLVQAGGSLRLSCAASGSIFEYYAMGWYRQAPGKERELVAAISSGGPTYYADSVKGRFTISRDNAKNTVYLQMNSLKPEDTAVYYCNADLWYPDYDYWGQGTQLTVSS",
    "polyreactivity (PSR sort gate)": "low polyreactivity"
  },
  {
    "SEQUENCE RECORD": "QVQLVESGGGLVQAGGSLRLSCAASGRTFGRNAMGWYRQAPGKERELVAAITWSGGRTYYADSVKGRFSISRDNAKNTVYLQMNSLKPEDTAVYYCARGSSSISIFYRYDYWGQGTQVTVSS",
    "polyreactivity (PSR sort gate)": "high polyreactivity"
  }
]

Hi there! I need polyreactivity (PSR sort gate) for each item below, if you can.
1. QVQLVESGGGLVQAGGSLRLSCAASGSIVIINTMGWYRQAPGKERELVAAISWGGTDTNYADSVKGRFTISRDNAKNTVYVQMNSLKPEDTAVYYCNTDQDLVRSYDYWGQGTQVTVSS
2. QVQLVESGGGLVQAGGSLRLTCAASGSIFNGYAMGCYRQAPGKERELVAAIRTRGGSTYYADSVKGRFTISRDIAMNTVYLQMNSLKPEDTAVYYCAKRYFGWYGNFDYWGQGTQVTVSS
3. QVQHVESGGGLVQAGGSLRLSCAASGSNSAYAMGWYRQAPGKERELVAAINSGGSTTYADSVKGRFTISRDNAKNTVYLQMNSLKPEDTAVYSCAARAPSFRYGTSNYPAYRLDYWGQGTQVTVSS

1. low polyreactivity
2. high polyreactivity
3. high polyreactivity

----------
ASSAY PROCEDURE: yeast display, Sf9 membrane polyspecificity reagent, FACS + sequencing; frameworks hold sequencing errors

[
  {
    "SEQUENCE RECORD": "QVQLVESGGGLFQEGGSLRLSCAASGSTFANYVMGWYRQAPGKEREFVAGITRSGGSTYYADSVKGRFTISRDNAKNTVYLQMNSLKPEDTAVYYCNKVRRASYYYEYDYWGQVTQVTVSS",
    "polyreactivity (PSR sort gate)": "low polyreactivity"
  },
  {
    "SEQUENCE RECORD": "QVQLVESGGGLVQAGGSLRLSCAASGRTFTYYTMGWYRQAPGKERELVAAITWSGGRTYYADSVKGRFTISRDNAKYTVYLQMNSLKPEDTAVYYCAKPPQGTYDYWGQGTQVTVSS",
    "polyreactivity (PSR sort gate)": "low polyreactivity"
  },
  {
    "SEQUENCE RECORD": "QVQLVESGGGLVQAGGSLRLSCAASGSIFTWYAMGWYRQAPGKERELVAAITRGGSTYADSVKGRFTISRDNAKNTVYLQMNSLKPEDTAVYYCNAVYGVYDFNYWGQGTQVTVSS",
    "polyreactivity (PSR sort gate)": "low polyreactivity"
  }
]

----------
ASSAY PROCEDURE: yeast display, Sf9 membrane polyspecificity reagent, FACS + sequencing; frameworks hold sequencing errors
MEASURED ATTRIBUTE: polyreactivity (PSR sort gate)

Reference set, count: 4
[
  {
    "SEQUENCE RECORD": "QVQLVESGGGLVQAGGSLRLSCAASGITFAYYAMGWYRQAPGKERELVAAITRRGSSTYYADSVKGRFTISRDNAKNTVYLQMNSLKPEDTAVYYCAAVAYGRERYDYWGQGTQVTVSS",
    "polyreactivity (PSR sort gate)": "high polyreactivity"
  },
  {
    "SEQUENCE RECORD": "QVQLVESGGGLVQAGGSLRLSCAASGRTFNYNSMGWYRQAPGKERELVAAISATGGTTYYADSVKGRFTISRDNAKNTVYLQMNSLKPEDTAVYYCAADTPPYYAYWDVSFEYYYWGQGTQVTVSS",
    "polyreactivity (PSR sort gate)": "low polyreactivity"
  },
  {
    "SEQUENCE RECORD": "QVQLVESAGGLVQAGGSLRLSCAASGRILPSNAMGWYRQAPGKERELVAGITSGGSTDYADSVKGRFTISRDNAKNTVYLQMNSLKPEDTGVFYCAADSRRYGVRFDYWGQGTQVTVSS",
    "polyreactivity (PSR sort gate)": "low polyreactivity"
  },
  {
    "SEQUENCE RECORD": "QVQLVESGGGLVQAGGSLRISCAASGRIFWANVMGWYRQAPGKERELVAAITGGGRTYYADSVKGRFTISRDNAKNTVYLQMNSLKPEDTAVYYCNAELNWYYYIHLDYWGQGTQVTVSS",
    "polyreactivity (PSR sort gate)": "low polyreactivity"
  }
]

For the next question, use this sequence.
Please list polyreactivity (PSR sort gate) recorded for the sequence QVQLVESGGGLVQAGGSLRLSCDASGLTFAYYAMGWYRQEPGKERELVADISWNGGRTYYSDSVKGRFTISGYNAKNTVYLQMNSLKPEDSAVYYCAAQVTSSFYWGQGTQVTVSS
high polyreactivity

Data credit: the nanobody polyreactivity screen of Harvey et al. (2022)
